System: MDA-MB-231 breast
Test: NCI tumour cell line growth inhibition, 48 h; in the data active means GI50 below about 0.43 µM; inactive means the rest
Answer with one of the outcomes 1 (yes) for active, 0 (no) for inactive

Illustrative cases are given below, each with its answer.
* COc1cc(-c2nc(SCC(=O)Nc3ccc(C(C)=O)cc3)[nH]c(=O)c2C#N)cc(OC)c1OC | 0 (no)
* CN(C)CCOc1nc2c3cccnc3cc(-c3cccc(Cl)c3)c2c2ncccc12 | 0 (no)
* C=CC[Se]C(=O)Cc1c(C)n(C(=O)c2ccc(Cl)cc2)c2ccc(OC)cc12 | 0 (no)
* Cc1[nH]nc2c1N=C(c1ccccc1F)c1cc(C#N)ccc1N2 | 0 (no)

Query string: Each compound tested received a call. Report the one for CCCC[P+](c1ccccc1)(c1ccccc1)c1ccccc1 .
Result string: 0 (no)

Query string: Each compound tested received a call. Report the one for C[C@H]1CCC/C=C/[C@@H]2C[C@H](O)C[C@H]2[C@H](O)[C@@H](S(=O)CCN)CC(=O)O1 (stereo not given in full) .
Result string: 1 (yes)

Query string: Each compound tested received a call. Report the one for COc1ccc(NC(=O)c2sc3nc(C)c(C(O)c4ccc(OC)cc4)cc3c2N)cc1 (stereo not given) .
Result string: 0 (no)

Query string: Each compound tested received a call. Report the one for CCCCCCNC(=O)Oc1ccc(/C(=C(\C)c2ccccc2)c2ccc(OCCN3CCCCC3)cc2)cc1 .
Result string: 0 (no)

Query string: Each compound tested received a call. Report the one for Oc1ccc(Br)cc1/C=N/NC(=S)NC12CC3CC(CC(C3)C1)C2 .
Result string: 0 (no)

Query string: Each compound tested received a call. Report the one for CCCCCCCCCCCCOC1C(C(COC2OC(C(O)CN3CCCCC3)C3OC(C)(C)OC23)NC(=O)Nc2ccccc2)OC2OC(C)(C)OC21 (stereo not given) .
Result string: 0 (no)
